- Test system: Mycobacterium tuberculosis
- Measurement description: Cornell - Phenotypic assay to identify agents that inhibit growth of Mycobacterium tuberculosis
- Assay type: functional
- Set-up: scale not given: direction of the effect not stated beside the values
- Cond: 10 mM as filed; unlikely as a test dose
Out of some 53,000 compounds screened, about 900 (1.7%) showed an effect of 50% or more. This excerpt belongs to a sample that is enriched for strong results.
Percent Effect values, listed per item

>  <Molecule>
Cc1noc(C)c1CN1C[C@@H](C(=O)O)[C@H](c2ccccc2)C1

>  <Percent Effect [%]>
23.54

$$$$
>  <Molecule>
NS(=O)(=O)NCc1cc(-c2ccco2)n(CC(F)(F)F)n1

>  <Percent Effect [%]>
5.494

$$$$
>  <Molecule>
NC(=O)c1cc2c(nc1Oc1ccccc1CN1CCCCC1)CCC2

>  <Percent Effect [%]>
23.43

$$$$
>  <Molecule>
Clc1cc(N2CCN(C3CCOCC3)CC2)nc2[nH]ccc12

>  <Percent Effect [%]>
-30.2

$$$$
>  <Molecule>
CC(C)c1nccn1-c1nccnc1C1CCCN1Cc1cccnc1 (stereo unspecified)

>  <Percent Effect [%]>
-9.727

$$$$
>  <Molecule>
CCC(=O)Nc1ccc2c(c1)C1(CCOCC1)CN2CCF.O=C(O)C(F)(F)F

>  <Percent Effect [%]>
2.387

$$$$
